# TEST SYSTEM: T1, Cdc13-K622A (Saccharomyces cerevisiae, UniProt P32797 1-924, K622A)
# T1 sequence: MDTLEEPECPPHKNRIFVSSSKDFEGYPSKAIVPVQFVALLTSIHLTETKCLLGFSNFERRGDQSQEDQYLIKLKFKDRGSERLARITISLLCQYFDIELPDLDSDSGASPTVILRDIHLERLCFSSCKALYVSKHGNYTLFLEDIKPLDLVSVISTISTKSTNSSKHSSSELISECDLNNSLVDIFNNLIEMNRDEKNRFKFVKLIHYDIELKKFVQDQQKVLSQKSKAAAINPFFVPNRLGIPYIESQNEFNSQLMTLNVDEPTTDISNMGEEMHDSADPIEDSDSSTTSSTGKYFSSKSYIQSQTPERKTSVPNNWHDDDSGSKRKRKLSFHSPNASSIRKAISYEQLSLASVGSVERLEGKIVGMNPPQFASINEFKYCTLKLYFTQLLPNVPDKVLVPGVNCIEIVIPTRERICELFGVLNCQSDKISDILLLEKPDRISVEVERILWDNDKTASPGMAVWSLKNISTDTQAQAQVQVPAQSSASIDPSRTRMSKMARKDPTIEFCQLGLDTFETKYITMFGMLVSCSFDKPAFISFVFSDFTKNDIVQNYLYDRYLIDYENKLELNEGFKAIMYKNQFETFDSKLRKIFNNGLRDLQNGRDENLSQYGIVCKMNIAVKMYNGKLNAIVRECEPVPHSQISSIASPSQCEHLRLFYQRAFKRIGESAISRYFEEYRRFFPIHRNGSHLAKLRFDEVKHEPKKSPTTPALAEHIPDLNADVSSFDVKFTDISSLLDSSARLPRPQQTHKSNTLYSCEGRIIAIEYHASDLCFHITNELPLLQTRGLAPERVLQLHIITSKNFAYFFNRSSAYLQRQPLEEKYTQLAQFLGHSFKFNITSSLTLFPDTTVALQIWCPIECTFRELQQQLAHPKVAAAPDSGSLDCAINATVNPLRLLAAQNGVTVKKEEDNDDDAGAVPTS
# EXPERIMENT DESCRIPTION: EMSA
RESULT TYPE: pKd
Answer as the number alone; pKd is minus log10 of concentration in mol/L.

Give the measured pKd of GTGTGGGTGTG (ssDNA) [Tel11] .
10.30

This collection of values is drawn from paper PMC3874162.
